biological target: 3-hydroxyacyl-CoA dehydrogenase type-2 (Homo sapiens); test: qHTS Assay for Inhibitors of HSD17B4, hydroxysteroid (17-beta) dehydrogenase 4; conditions: recombinant HSD17B10, NADH fluorescence kinetic; series mostly up to 57.1 µM;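 also: the protocol describes HADH2 (HSD17B10) and not the HSD17B4 of the title; nearly all actives have a fitted effect of over 70% in size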
About 5,700 (7.6%) of roughly 75,000 compounds were called active. Roughly 7% stayed inconclusive and do not appear here. Calls follow the shape of the dose curve; as a rule, active = well fitted inhibition curve with a large enough effect; inconclusive = small, poorly fitted or top-dose-only effect; inactive = no such curve, though single readings can be large or run the other way. Only a selection was taken, and actives are over-represented in it overall.
Give one outcome, nothing more. List: active, inactive

INSERT INTO results (compound, category) VALUES
  ('CCn1nnc(NC(=O)c2c(OC)cccc2OC)n1', 'inactive'),
  ('COC(=O)CC1C(C)(C)C(OC(C)=O)C2CC3=C4CC(=O)OC(c5ccoc5)[C@]4(C)CCC3[C@@]1(C)C2=O (stereo partly specified)', 'inactive'),
  ('CCC(=O)c1ccc(OCC(O)CN2C(=O)NC(C)(C)C2=O)cc1 (stereo unspecified)', 'inactive'),
  ('C[C@H]1O[C@@H](CC(=O)O)Cc2c1c(O)c1c(O)cc(-c3cc(=O)c4c(=O)c5c(c(=O)c=4c3=O)C[C@H](CC(=O)O)O[C@@H]5C)c(O)c1c2O', 'active'),
  ('Cc1ccc(Br)cc1', 'inactive'),
  ('CNc1cc(-c2c(C)noc2C)ncn1', 'inactive'),
  ('Cc1nc2cc(S(=O)(=O)C(F)(F)F)ccc2s1', 'inactive'),
  ('O=C(COC(=O)C12CC3CC(CC(C3)C1)C2)NCc1ccco1', 'inactive');

Inquiry: Could you please tell me the result logged for O=C(CCC(=O)c1cccs1)NCc1ccccc1 in this assay?
Reply text: inactive

Inquiry: Could you please tell me the result logged for CC(=O)c1c(C)n(-c2ccc(N(C)C)cc2)c2ccc(OCC(N)=O)cc12 in this assay?
Reply text: inactive

Inquiry: Could you please tell me the result logged for O=C(COC(=O)CCC(=O)c1cccs1)NCc1ccco1 in this assay?
Reply text: active

Hello, the source for this data is PubChem BioAssay AID893, in case you need it.
